measurementTarget: Vibrio cholerae aspartate semialdehyde dehydrogenase (vcASADH)
assayNotes: vcASADH kinetic assay: reverse direction, NADPH absorbance at 340 nm; Ki from Dixon plot assuming competitive inhibition against ASA
Type: biochemical
conditions: FIG. 5, Table 2; pH 8.6, r.t., 0.3 mM ASA, 1.5 mM NADP, 20 mM phosphate
assayMetric: pKi
Convention used: pKi is expressed as -log10 of the molar concentration.

Recorded results for 3 molecules are shown here.
Which measured pKi value corresponds to O=C(O)CN(Cc1ccc(C(=O)O)c(C(=O)O)c1)Cc1ccccc1OC(F)(F)F [Compound 27] ?
3.15

Which measured pKi value corresponds to CC(C)(C)c1ccc(CN(CC(=O)O)Cc2ccc(C(=O)O)c(C(=O)O)c2)cc1 [Compound 33] ?
3.19

Which measured pKi value corresponds to O=C(O)CN(Cc1ccc(C=Cc2ccccc2)cc1)Cc1ccc(C(=O)O)c(C(=O)O)c1 [Compound 38] ?
2.96

New cases:
Which measured pKi value corresponds to O=C(O)CN(Cc1ccc(OC(F)F)cc1)Cc1ccc(C(=O)O)c(C(=O)O)c1 [Compound 30] ?
3.16

====

measurementTarget: Vibrio cholerae aspartate semialdehyde dehydrogenase (vcASADH) (Vibrio cholerae serotype O1, UniProt P23247)
Sequence (P23247 whole entry): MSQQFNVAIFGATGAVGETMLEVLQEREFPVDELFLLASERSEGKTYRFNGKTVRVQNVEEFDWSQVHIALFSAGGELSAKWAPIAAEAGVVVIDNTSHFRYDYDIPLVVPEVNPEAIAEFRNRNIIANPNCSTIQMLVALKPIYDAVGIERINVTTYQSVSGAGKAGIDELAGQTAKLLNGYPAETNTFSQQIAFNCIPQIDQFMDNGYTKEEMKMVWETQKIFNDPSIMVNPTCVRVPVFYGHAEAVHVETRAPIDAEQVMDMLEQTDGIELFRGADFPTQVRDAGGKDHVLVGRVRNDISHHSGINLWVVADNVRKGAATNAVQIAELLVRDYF
assayMetric: Ki (µM)
Write down the numeric answer in µM and omit the unit.

Which measured Ki value corresponds to O=C(O)CNCc1ccc(C(=O)O)c(C(=O)O)c1 [Compound 3, N-carboxymethyl-3,4-dicarboxybenzylamine] ?
500

====

measurementTarget: Streptococcus pneumoniae aspartate semialdehyde dehydrogenase (spASADH) (Streptococcus pneumoniae, UniProt Q8DQ00)
Construct: homodimer from general knowledge
assayNotes: spASADH kinetic assay: reverse direction, NADPH absorbance at 340 nm; Ki from Dixon plot assuming competitive inhibition against ASA
Format: biochemical
conditions: FIG. 5, Table 2; pH 8.6, r.t., 0.15 mM ASA, 1.5 mM NADP, 20 mM phosphate
// reported Ki for each item listed
Write down the numeric answer in µM and omit the unit.

Recorded results for 2 molecules are shown here.
Which measured Ki value corresponds to Cc1ccc(CN(CC(=O)O)Cc2ccc(C(=O)O)c(C(=O)O)c2)cc1 [Compound 23] ?
63

Which measured Ki value corresponds to O=C(O)CN(Cc1ccc(C(=O)O)c(C(=O)O)c1)Cc1ccccc1C(F)(F)F [Compound 24] ?
509

New cases:
Which measured Ki value corresponds to O=C(O)CN(Cc1ccc(OC(F)F)cc1)Cc1ccc(C(=O)O)c(C(=O)O)c1 [Compound 30] ?
54

====

measurementTarget: Streptococcus pneumoniae aspartate semialdehyde dehydrogenase (spASADH) (Streptococcus pneumoniae)
Construct: homodimer from general knowledge
assayNotes: spASADH kinetic assay: reverse direction, NADPH absorbance at 340 nm; Ki from Dixon plot assuming competitive inhibition against ASA
Assay type: biochemical
conditions: FIG. 5, Table 2; pH 8.6, r.t., 0.15 mM ASA, 1.5 mM NADP, 20 mM phosphate
assayMetric: pKi
Convention used: pKi is expressed as -log10 of the molar concentration.

Which measured pKi value corresponds to "O=C(O)CCN(Cc1ccc(Br)cc1)Cc1ccc(C(=O)O)c(C(=O)O)c1" ?
2.44

Which measured pKi value corresponds to "O=C(O)CN(Cc1cccc(OC(F)(F)F)c1)Cc1ccc(C(=O)O)c(C(=O)O)c1" ?
3.37

New cases:
Which measured pKi value corresponds to "O=C(O)CN(Cc1ccc(OC(F)(F)F)cc1)Cc1ccc(C(=O)O)c(C(=O)O)c1" ?
4.44

Which measured pKi value corresponds to "Cc1cccc(CN(CC(=O)O)Cc2ccc(C(=O)O)c(C(=O)O)c2)c1" ?
3.37

====

measurementTarget: Streptococcus pneumoniae aspartate semialdehyde dehydrogenase (spASADH) (Streptococcus pneumoniae)
Construct: homodimer from general knowledge
assayNotes: spASADH kinetic assay: reverse direction, NADPH absorbance at 340 nm; Ki from Dixon plot assuming competitive inhibition against ASA
Format: biochemical
conditions: FIG. 5, Table 2; pH 8.6, r.t., 0.15 mM ASA, 1.5 mM NADP, 20 mM phosphate
// assign satisfied if Ki falls strictly below 400 µM, else not satisfied (ties count as not satisfied)

is_below(Ki, 400 µM) for O=C(O)CN(Cc1cccc(C(F)(F)F)c1)Cc1ccc(C(=O)O)c(C(=O)O)c1 [Compound 25] ?
not satisfied

is_below(Ki, 400 µM) for Cc1ccccc1CN(CC(=O)O)Cc1ccc(C(=O)O)c(C(=O)O)c1 [Compound 21] ?
not satisfied

is_below(Ki, 400 µM) for O=C(O)CN(Cc1cccc(Br)c1)Cc1ccc(C(=O)O)c(C(=O)O)c1 [Compound 19] ?
not satisfied

is_below(Ki, 400 µM) for O=C(O)CN(Cc1ccc(C(F)(F)F)cc1)Cc1ccc(C(=O)O)c(C(=O)O)c1 [Compound 36] ?
not satisfied

is_below(Ki, 400 µM) for O=C(O)CN(Cc1ccc(C(=O)O)c(C(=O)O)c1)Cc1ccccc1OC(F)(F)F [Compound 27] ?
not satisfied

New cases:
is_below(Ki, 400 µM) for O=C(O)CN(Cc1ccc(C(=O)O)c(C(=O)O)c1)Cc1ccccc1Br [Compound 18] ?
not satisfied

is_below(Ki, 400 µM) for NC(=O)c1ccc(CN(CC(=O)O)Cc2ccc(C(=O)O)c(C(=O)O)c2)cc1 [Compound 32] ?
satisfied

is_below(Ki, 400 µM) for O=C(O)CN(Cc1ccc(C(=O)O)cc1)Cc1ccc(C(=O)O)c(C(=O)O)c1 [Compound 31] ?
satisfied

====

measurementTarget: Streptococcus pneumoniae aspartate semialdehyde dehydrogenase (spASADH) (Streptococcus pneumoniae, UniProt Q8DQ00)
Construct: homodimer from general knowledge
Sequence (Q8DQ00 1-358): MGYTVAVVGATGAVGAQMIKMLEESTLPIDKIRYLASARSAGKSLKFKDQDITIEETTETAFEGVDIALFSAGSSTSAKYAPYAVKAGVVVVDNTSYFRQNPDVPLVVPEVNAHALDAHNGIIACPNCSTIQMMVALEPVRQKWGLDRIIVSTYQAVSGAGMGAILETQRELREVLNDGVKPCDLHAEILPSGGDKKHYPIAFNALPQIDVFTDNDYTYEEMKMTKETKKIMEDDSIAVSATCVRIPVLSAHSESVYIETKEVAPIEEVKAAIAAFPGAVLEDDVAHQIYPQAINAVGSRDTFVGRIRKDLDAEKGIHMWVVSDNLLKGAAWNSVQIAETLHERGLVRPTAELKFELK
assayNotes: spASADH kinetic assay: reverse direction, NADPH absorbance at 340 nm; Ki from Dixon plot assuming competitive inhibition against ASA
Type: biochemical
conditions: FIG. 4, Table 1; pH 8.6, r.t., 0.15 mM ASA, 1.5 mM NADP, 20 mM phosphate
// assign Yes if Ki falls strictly below 300 µM, else No (ties count as No)

is_below(Ki, 300 µM) for "CC(=O)N(CC(=O)O)Cc1ccc(C(=O)O)c(C(=O)O)c1" ?
Yes

is_below(Ki, 300 µM) for "O=C(O)c1ccc(CN[C@@H](CO)C(=O)O)cc1C(=O)O" ?
No

is_below(Ki, 300 µM) for "O=C(O)CN(Cc1ccc(C(=O)O)c(C(=O)O)c1)c1ccc2ccccc2c1" ?
No

is_below(Ki, 300 µM) for "O=C(O)CNCc1ccc(C(=O)O)c(C(=O)O)c1" ?
Yes

====

measurementTarget: Vibrio cholerae aspartate semialdehyde dehydrogenase (vcASADH)
assayNotes: vcASADH kinetic assay: reverse direction, NADPH absorbance at 340 nm; Ki from Dixon plot assuming competitive inhibition against ASA
Type: biochemical
conditions: FIG. 4, Table 1; pH 8.6, r.t., 0.3 mM ASA, 1.5 mM NADP, 20 mM phosphate
assayMetric: pKi
Convention used: pKi is expressed as -log10 of the molar concentration.

Which measured pKi value corresponds to "CC(=O)N(CC(=O)O)Cc1ccc(C(=O)O)c(C(=O)O)c1" ?
3.18

Which measured pKi value corresponds to "C=CCN(CC(=O)O)Cc1ccc(C(=O)O)c(C(=O)O)c1" ?
3.18

Which measured pKi value corresponds to "O=C(O)c1ccc(CN[C@@H](CO)C(=O)O)cc1C(=O)O" ?
3.18

New cases:
Which measured pKi value corresponds to "O=C(O)CN(Cc1ccc(C(=O)O)c(C(=O)O)c1)c1ccc2ccccc2c1" ?
3.14

Which measured pKi value corresponds to "O=C(O)CN(Cc1ccc(C(=O)O)c(C(=O)O)c1)c1ccc(-c2ccccc2)cc1" ?
3.20

Which measured pKi value corresponds to "CN(CC(=O)O)Cc1ccc(C(=O)O)c(C(=O)O)c1" ?
3.17

Which measured pKi value corresponds to "O=C(O)CN(Cc1ccccc1)Cc1ccc(C(=O)O)c(C(=O)O)c1" ?
3.16

Which measured pKi value corresponds to "C[C@H](NCc1ccc(C(=O)O)c(C(=O)O)c1)C(=O)O" ?
3.22

====

measurementTarget: Vibrio cholerae aspartate semialdehyde dehydrogenase (vcASADH)
assayNotes: vcASADH kinetic assay: reverse direction, NADPH absorbance at 340 nm; Ki from Dixon plot assuming competitive inhibition against ASA
Format: biochemical
conditions: FIG. 5, Table 2; pH 8.6, r.t., 0.3 mM ASA, 1.5 mM NADP, 20 mM phosphate
// reported pKi for each item listed
Convention used: pKi is expressed as -log10 of the molar concentration.

Item: "Cc1ccc(CN(CC(=O)O)Cc2ccc(C(=O)O)c(C(=O)O)c2)cc1" Test system: Vibrio cholerae aspartate semialdehyde dehydrogenase (vcASADH) Read-out: pKi Value: ?
3.22

Item: "O=C(O)CN(Cc1cccc(Br)c1)Cc1ccc(C(=O)O)c(C(=O)O)c1" Test system: Vibrio cholerae aspartate semialdehyde dehydrogenase (vcASADH) Read-out: pKi Value: ?
3.18

Item: "NC(=O)c1ccc(CN(CC(=O)O)Cc2ccc(C(=O)O)c(C(=O)O)c2)cc1" Test system: Vibrio cholerae aspartate semialdehyde dehydrogenase (vcASADH) Read-out: pKi Value: ?
3.19

Item: "O=C(O)CN(Cc1ccc(C(F)(C(F)(F)F)C(F)(F)F)cc1)Cc1ccc(C(=O)O)c(C(=O)O)c1" Test system: Vibrio cholerae aspartate semialdehyde dehydrogenase (vcASADH) Read-out: pKi Value: ?
3.19

Item: "Cc1cccc(CN(CC(=O)O)Cc2ccc(C(=O)O)c(C(=O)O)c2)c1" Test system: Vibrio cholerae aspartate semialdehyde dehydrogenase (vcASADH) Read-out: pKi Value: ?
3.16

Switching to the query record.
Item: "O=C(O)CN(Cc1ccc(C(F)(F)F)cc1)Cc1ccc(C(=O)O)c(C(=O)O)c1" Test system: Vibrio cholerae aspartate semialdehyde dehydrogenase (vcASADH) Read-out: pKi Value: ?
3.20

Origin of measurements: patent US10449168B2
